// merged dataset of IC50 values, system = Lysophosphatidic acid receptor 1 (Homo sapiens, UniProt Q92633), multiple refs
Sequence (Q92633 whole entry): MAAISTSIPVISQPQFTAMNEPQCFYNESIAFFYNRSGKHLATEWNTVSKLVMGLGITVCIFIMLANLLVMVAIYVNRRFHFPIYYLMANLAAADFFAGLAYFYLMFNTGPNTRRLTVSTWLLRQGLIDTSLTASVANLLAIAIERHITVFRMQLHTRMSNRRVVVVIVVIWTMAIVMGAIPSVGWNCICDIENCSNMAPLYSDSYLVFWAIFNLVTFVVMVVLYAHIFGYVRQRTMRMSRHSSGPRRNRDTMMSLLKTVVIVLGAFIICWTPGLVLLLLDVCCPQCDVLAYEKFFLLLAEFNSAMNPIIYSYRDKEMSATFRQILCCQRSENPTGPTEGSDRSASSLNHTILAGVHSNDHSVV
Just the number in nM, nothing appended.

These recorded examples may help you get a feel for the data.
>  <molecule>
Cc1cccc2c(NC(C)CN3CCN(S(=O)(=O)c4ccc(Cl)c(Cl)c4)CC3)ncnc12 (stereo in doubt; 42b)

>  <tested on>
Lysophosphatidic acid receptor 1 (Homo sapiens, UniProt Q92633)

>  <obs value>
12600

$$$$
>  <molecule>
COc1ccc(C(=O)NC2(C(=O)O)CCCCCC2)cc1OCCc1cccc(Cl)c1

>  <tested on>
Lysophosphatidic acid receptor 1 (Homo sapiens, UniProt Q92633)

>  <obs value>
100

$$$$
>  <molecule>
CCCCCCCC/C=C\CCCCCCCC(=O)N[C@@H](COP(=O)(O)O)Cc1ccc(OCc2cc(OC)c3ccccc3n2)cc1

>  <tested on>
Lysophosphatidic acid receptor 1 (Homo sapiens, UniProt Q92633)

>  <obs value>
962

$$$$
>  <molecule>
CCCCCCCC/C=C\CCCCCCCC(=O)N[C@@H](COP(=O)(O)O)Cc1ccc(OCc2cc(OCC(F)(F)F)ccn2)cc1

>  <tested on>
Lysophosphatidic acid receptor 1 (Homo sapiens, UniProt Q92633)

>  <obs value>
84

$$$$
>  <molecule>
COc1ccc(C(=O)NC2(C(=O)O)CCCCCC2)cc1OCCc1cc(Cl)ccc1F

>  <tested on>
Lysophosphatidic acid receptor 1 (Homo sapiens, UniProt Q92633)

>  <obs value>
100

$$$$
>  <molecule>
CCCCCCCC/C=C\CCCCCCCC(=O)N[C@@H](COP(=O)(O)O)Cc1ccc(OCc2cc(OC)ccn2)cc1

>  <tested on>
Lysophosphatidic acid receptor 1 (Homo sapiens, UniProt Q92633)

>  <obs value>
6250

$$$$

# evaluate next
Asked: Consider the molecule CCCCCCCC/C=C\CCCCCCCC(=O)N[C@@H](COP(=O)(O)O)Cc1ccc(OCc2ccc3ccccc3n2)cc1 and give its measured IC50.
Given back: 1430

----------
pIC50 values for Lysophosphatidic acid receptor 1 (Homo sapiens), compiled from several publications.
In plain terms, pIC50 is the concentration in mol/L turned into minus its base-10 logarithm.

Some entries whose results are on file:
>  <compound>
CC(CN1CCN(S(=O)(=O)c2ccc(Cl)c(Cl)c2)CC1)Nc1ncnc2c1ncn2C (racemic)

>  <pIC50>
4.69

$$$$
>  <compound>
COc1ccc(C(=O)NC2(C(=O)O)CC3CCC(C3)C2)cc1OCCc1cccc(C)c1 (stereo not drawn)

>  <pIC50>
7.00

$$$$
>  <compound>
Cc1csc2c(N[C@@H](C)CN3CCN(S(=O)(=O)c4ccc(Cl)c(Cl)c4)CC3)ncnc12

>  <pIC50>
5.01

$$$$
>  <compound>
CCCCCCCC/C=C\CCCCCCCC(=O)N[C@H](COP(=O)(O)O)Cc1ccc(OCc2cccnc2)cc1

>  <pIC50>
5.35

$$$$
>  <compound>
Cc1cc2ncnc(NC(C)CN3CCN(S(=O)(=O)c4ccc(Cl)c(Cl)c4)CC3)c2s1 (racemic)

>  <pIC50>
4.98

$$$$
>  <compound>
CCCCCCCC/C=C\CCCCCCCC(=O)N[C@@H](COP(=O)(O)O)Cc1ccc(OCc2ncc(C)c(OC)c2C)cc1

>  <pIC50>
7.21

$$$$

Now for the compound whose pIC50 we want.
Asked: Param readout = pIC50; param system = Lysophosphatidic acid receptor 1 (Homo sapiens); param query = CCCCCCCC/C=C\CCCCCCCC(=O)N[C@@H](COP(=O)(O)O)Cc1ccc(OCc2cccnc2)cc1 ; response: value
Given back: 6.00
